Molecular target: Glycogen synthase kinase-3 alpha (Homo sapiens) (UniProt P49840)
Sequence (P49840 2-483 limits assumed): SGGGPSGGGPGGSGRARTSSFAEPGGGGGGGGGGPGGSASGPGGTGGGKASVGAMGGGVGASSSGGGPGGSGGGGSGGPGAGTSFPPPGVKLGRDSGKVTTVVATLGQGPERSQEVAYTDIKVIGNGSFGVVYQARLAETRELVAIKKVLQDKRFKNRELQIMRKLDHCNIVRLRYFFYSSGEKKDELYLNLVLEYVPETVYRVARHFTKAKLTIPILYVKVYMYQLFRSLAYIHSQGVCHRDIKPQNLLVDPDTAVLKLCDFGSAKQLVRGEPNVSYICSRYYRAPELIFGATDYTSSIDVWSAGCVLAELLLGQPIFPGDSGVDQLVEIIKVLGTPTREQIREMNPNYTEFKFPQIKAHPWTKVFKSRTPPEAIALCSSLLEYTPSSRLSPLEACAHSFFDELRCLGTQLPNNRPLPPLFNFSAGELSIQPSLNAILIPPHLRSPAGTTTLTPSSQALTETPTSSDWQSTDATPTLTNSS
Conditions: at 1 µM
measurement.type: residual activity (%)
Form entry: value (%) — number only.

Consider the worked cases shown below.
{"compound": "CCN(CC)CCCCN1c2ccccc2Oc2ccc(Cl)cc21", "obs.value": 133}
{"compound": "O=c1cc(-c2cccc3c2Sc2ccccc2S3)oc(N2CCOCC2)c1", "obs.value": 86}
{"compound": "O=C(Nc1cccc(Nc2cc(Nc3cccc(C(F)(F)F)c3)ncn2)c1)C1CC1", "obs.value": 107}
{"compound": "Ic1cccc(CSc2nnc(-c3ccncc3)o2)c1", "obs.value": 32}
{"compound": "CNc1cc2c(Nc3cccc(Br)c3)ncnc2cn1", "obs.value": 123}
{"compound": "O=C1Nc2ccccc2/C1=C1/Nc2ccccc2/C1=N\\OCCC(O)CO (stereo not drawn)", "obs.value": 4}
{"compound": "Nc1cccc(-c2cc3c(Oc4cccc(O)c4)ncnc3[nH]2)c1", "obs.value": 27}
{"compound": "O=C1NC(=O)/C(=C\\c2ccc3nccnc3c2)S1", "obs.value": 90}
{"compound": "Cc1cc2ncc(-c3ccccc3)nc2cc1C", "obs.value": 104}
{"compound": "Nc1ccc2ncnc(NCCc3ccc(Oc4ccccc4)cc3)c2c1", "obs.value": 94}

Prompt: Report its residual activity with Glycogen synthase kinase-3 alpha (Homo sapiens) (UniProt P49840) as the test system: `Cc1ccc(NC2=CC(=O)c3sc(C)nc3C2=O)cc1`
Response: 119

Prompt: Report residual activity under test system Glycogen synthase kinase-3 alpha (Homo sapiens) (UniProt P49840) for `CN(C)c1ccc(/C=C2\C(=O)Nc3ccccc32)cc1` .
Response: 103
